Can you tell me recombinant barcode read abundance (log10) for the items I'm about to list?
experiment: recombinant barcode read abundance after kanamycin selection (control-corrected) (log10(CPM+1)); higher = more efficient recombination; sequences stand for … in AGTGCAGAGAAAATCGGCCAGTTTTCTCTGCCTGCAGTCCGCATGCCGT…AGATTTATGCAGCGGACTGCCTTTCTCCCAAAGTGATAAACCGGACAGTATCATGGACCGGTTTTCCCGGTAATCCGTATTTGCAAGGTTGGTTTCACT; site = the 11-nt target
Give bare numbers.

construct sequence | result value
CAAATAACTTGGGTTCTAACCTGTTGCCT (site CAGCTAACTAG) | 0.134
GAGCTGCCTTGGGTTCTAACCTGTTGCCA (site GAGCTGCCTTG) | 1.66
GCAATTACTTGGGTTCTAACCTGTTGCTT (site TGGGGCCCTCG) | 0.078

Dear colleague, could you please provide recombinant barcode read abundance (log10) for the sequences listed below?
1. GATCGAGCTTGGGTTCTAACCTGTTGCCT (site GATCGCGCTAG)
2. CCAAGGGCTTGGGTTCTAACCTGTTGCAG (site CCAAGGGCTCT)
3. ATGGTGGCTTGGGTTCTAACCTGTTGCCT (site ATGGTGGCTAG)

0
2.13
1.81

For every listed record, write down its recombinant barcode read abundance (log10).
1. GAGGAACCTTGGGTTCTAACCTGTTGCCT (site TAGGAACCTAG)
2. AGCTCCTCTTGGGTTCTAACCTGTTGCCT (site GGCTCCTCTAG)
3. TGAGACTCTTGGGTTCTAACCTGTTGCCT (site TGGGACTCTAG)

1. 1.44
2. 0.0482
3. 0.198

sequence TAGTACCCTTGGGTTCTAACCTGTTGCAC (site TAGTACCCTAT) , recombinant barcode read abundance (log10) observed: 0.169

---

assay: recombinant UMI read abundance after kanamycin selection (control-corrected) (log10(CPM+1)); higher = more efficient recombination; extreme values may be limits of the assay; sequences stand for … in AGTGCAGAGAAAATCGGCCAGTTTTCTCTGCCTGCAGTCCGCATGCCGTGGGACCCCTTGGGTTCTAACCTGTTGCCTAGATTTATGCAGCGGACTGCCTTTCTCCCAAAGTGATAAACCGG…AGGTTGGTTTCACT; site = the 11-nt donor
experimental readout: recombinant UMI read abundance (log10)
Give bare numbers.

construct sequence | result value
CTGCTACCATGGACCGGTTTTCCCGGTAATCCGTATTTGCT (site CTACTACCTAG) | 0
CGGGAGTCATGGACCGGTTTTCCCGGTAATCCGTATTTGGC (site CGGGAGTCTGT) | 1.96
CAATACTCATGGACCGGTTTTCCCGGTAATCCGTATTTGAA (site CAATACTCTTT) | 3.09
CCAGGAGCATGGACCGGTTTTCCCGGTAATCCGTATTTGAT (site CCAGGCGCTAT) | 0.854
CCCCAGCCATGGACCGGTTTTCCCGGTAATCCGTATTTGCC (site CCCAAGCCTGG) | 0

Please look at the items below and tell me recombinant UMI read abundance (log10) for each one, in order.
1. GTGGAAGCATGGACCGGTTTTCCCGGTAATCCGTATTTGTG (site GTGGATGCTCA)
2. GTCGAATCATGGACCGGTTTTCCCGGTAATCCGTATTTGGT (site GTCGAATCTAC)
3. CTTCCTACATGGACCGGTTTTCCCGGTAATCCGTATTTGAG (site CTACCTACTCT)

[0.605, 2.07, 0.0179]
